system: aminopeptidase; assay: Substrate specificity of the aminopeptidase (paranitroanilide substrates); format: biochemical, Streptomyces thermonitrificans; conditions: substrate 10 mM, 1 unit aminopeptidase, 100 mM Tris buffer pH 8.0, 37° C.; activity to leucine-paranitroanilide as 100%
Residues, ends and D or L forms follow the SMILES beside them. *: point of attachment. pNA = O=[N+]([O-])c1ccc(N*)cc1
recorded.metric: Activity(%) of the aminopeptidase according to the substrate

Worked examples, 5 compounds total:
compound: C[C@H](N)C(=O)Nc1ccc([N+](=O)[O-])cc1 [alanine-paranitroanilide]
measure.unit: %
result.number: 0.60
//
compound: CSCC[C@H](N)C(=O)Nc1ccc([N+](=O)[O-])cc1 [methionine-paranitroanilide]
measure.unit: %
result.number: 3.60
//
compound: NCC(=O)N[C@@H](Cc1ccccc1)C(=O)Nc1ccc([N+](=O)[O-])cc1 [glycine-phenylalanine-paranitroanilide] (H-Gly-Phe-pNA)
measure.unit: %
result.number: 0.11
//
compound: NCC(=O)Nc1ccc([N+](=O)[O-])cc1 [glycine-paranitroanilide]
measure.unit: %
result.number: 0.04
//
compound: CC(C)C[C@H](N)C(=O)Nc1ccc([N+](=O)[O-])cc1 [leucine-paranitroanilide]
measure.unit: %
result.number: 100

[A] NCC(=O)N1CCC[C@H]1C(=O)Nc1ccc([N+](=O)[O-])cc1 [glycine-proline-paranitroanilide] (H-Gly-Pro-pNA)
[B] NCCCC[C@H](N)C(=O)Nc1ccc([N+](=O)[O-])cc1 [lysine-paranitroanilide]
# compare Activity(%) of the aminopeptidase according to the substrate for A vs B ; return the one with the smaller value In your reply, give the label of the chosen option.
B
(B: 0.03%, A: 0.80%)

Recorded values, source patent US5569598A.
